# Test system: 616215-338-R-J1-PDC complex spheroid viability
# protocol: Anticancer human tumor 616215-338-R-J1-PDC patient-derived colon adenocarcinoma cell line growth inhibition [POLQ]
# condition: second compound 1 µM; first compound 0.00316 µM; stronger effect = lower value
Could you please report measured viability, T/C for the items listed next?
Hi! Could you send only the number? It should be in %, unit omitted.

# viability, T/C lookup, item C=CCn1c(=O)c2cnc(Nc3ccc(N4CCN(C)CC4)cc3)nc2n1-c1cccc(C(C)(C)O)n1 + Nc1ccc(C#CCN(C(=O)Cc2ncc(C(F)(F)F)cc2C(F)(F)F)c2ccc(F)cc2)nn1
98.9

# viability, T/C lookup, item CCc1c2c(nc3ccc(O)cc13)-c1cc3c(c(=O)n1C2)COC(=O)[C@]3(O)CC + Cc1cccc(N(C)C(=O)C2C(O)CCN2c2nc(C)cc(C(F)(F)F)c2C#N)c1
111

# viability, T/C lookup, item CC[C@@]1(O)C(=O)OCc2c1cc1n(c2=O)Cc2cc3c(CN(C)C)c(O)ccc3nc2-1 + Nc1ccc(C#CCN(C(=O)Cc2ncc(C(F)(F)F)cc2C(F)(F)F)c2ccc(F)cc2)nn1
107

# viability, T/C lookup, item CCc1c2c(nc3ccc(O)cc13)-c1cc3c(c(=O)n1C2)COC(=O)[C@]3(O)CC + Nc1ccc(C#CCN(C(=O)Cc2ncc(C(F)(F)F)cc2C(F)(F)F)c2ccc(F)cc2)nn1
83.8

# viability, T/C lookup, item CC[C@@]1(O)C(=O)OCc2c1cc1n(c2=O)Cc2cc3c(CN(C)C)c(O)ccc3nc2-1 + Cc1cccc(N(C)C(=O)C2C(O)CCN2c2nc(C)cc(C(F)(F)F)c2C#N)c1
112

###

# Tested on: 616215-338-R-J1-PDC complex spheroid viability
# protocol: Anticancer human tumor 616215-338-R-J1-PDC cell line growth inhibition [POLQ];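 further: spheroids exposed to compounds for one week before readout; percent viability relative to DMSO vehicle wells taken as 100%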
# condition: second compound 0.316 µM; first compound 3.16 µM; stronger effect = lower value
Could you please report measured viability, T/C for the items listed next?
Hi! Could you send only the number? It should be in %, unit omitted.

# viability, T/C lookup, item CCc1cc2c(N3CCc4c(cc(Cn5ccnc5)cc4-c4cn(C)nc4C(F)(F)F)C3=O)ccnc2c(OC)n1 + COC1C(OC(N)=O)C(O)C(Oc2ccc3c(O)c(NC(=O)c4ccc(O)c(CC=C(C)C)c4)c(=O)oc3c2C)OC1(C)C
66.5

# viability, T/C lookup, item O=c1[nH]cc(F)c(=O)[nH]1 + Nc1ccc(C#CCN(C(=O)Cc2ncc(C(F)(F)F)cc2C(F)(F)F)c2ccc(F)cc2)nn1
42

# viability, T/C lookup, item COc1cc2cc(C(=O)CCC(=O)O)sc2cc1OC + Nc1ccc(C#CCN(C(=O)Cc2ncc(C(F)(F)F)cc2C(F)(F)F)c2ccc(F)cc2)nn1
113

# viability, T/C lookup, item Nc1ccn(C2OC(CO)C(O)C2(F)F)c(=O)n1 (stereo not given) + Cc1cccc(N(C)C(=O)C2C(O)CCN2c2nc(C)cc(C(F)(F)F)c2C#N)c1
34.4

# viability, T/C lookup, item COc1ccc([C@@H](O)c2cc(-c3ncnc4cc(N5CCOCC5)ccc34)c(F)cc2Cl)nn1 + Cc1cccc(N(C)C(=O)C2C(O)CCN2c2nc(C)cc(C(F)(F)F)c2C#N)c1
109

# viability, T/C lookup, item O=C(c1cc(Cc2n[nH]c(=O)c3ccccc23)ccc1F)N1CCN(C(=O)C2CC2)CC1 + Nc1ccc(C#CCN(C(=O)Cc2ncc(C(F)(F)F)cc2C(F)(F)F)c2ccc(F)cc2)nn1
102

# viability, T/C lookup, item C=CC(=O)N1CCN(c2nc(=O)n(-c3c(C)ccnc3C(C)C)c3nc(-c4c(O)cccc4F)c(F)cc23)C(C)C1 (stereo not given) + COC1C(OC(N)=O)C(O)C(Oc2ccc3c(O)c(NC(=O)c4ccc(O)c(CC=C(C)C)c4)c(=O)oc3c2C)OC1(C)C
107

# viability, T/C lookup, item COc1cccc2c1C(=O)c1c(O)c3c(c(O)c1C2=O)CC(O)(C(=O)CO)CC3OC1CC(N)C(O)C(C)O1 (stereo not given) + Nc1ccc(C#CCN(C(=O)Cc2ncc(C(F)(F)F)cc2C(F)(F)F)c2ccc(F)cc2)nn1
0.9

# viability, T/C lookup, item CCc1cc2c(N3CCc4c(cc(Cn5ccnc5)cc4-c4cn(C)nc4C(F)(F)F)C3=O)cc(C)nc2c(OC)n1 + Nc1ccc(C#CCN(C(=O)Cc2ncc(C(F)(F)F)cc2C(F)(F)F)c2ccc(F)cc2)nn1
51.5

# viability, T/C lookup, item COc1cccc2c1C(=O)c1c(O)c3c(c(O)c1C2=O)CC(O)(C(=O)CO)CC3OC1CC(N)C(O)C(C)O1 (stereo not given) + COC1C(OC(N)=O)C(O)C(Oc2ccc3c(O)c(NC(=O)c4ccc(O)c(CC=C(C)C)c4)c(=O)oc3c2C)OC1(C)C
5.27

###

# Tested on: 616215-338-R-J1-PDC complex spheroid viability
# protocol: Anticancer human tumor 616215-338-R-J1-PDC cell line growth inhibition [POLQ];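 further: spheroids exposed to compounds for one week before readout; percent viability relative to DMSO vehicle wells taken as 100%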
# condition: second compound 0.316 µM; first compound 3.16 µM; stronger effect = lower value
Could you please report measured viability, T/C for the items listed next?
Hi! Could you send only the number? It should be in %, unit omitted.

# viability, T/C lookup, item CC1COCCN1c1cc(-c2ccnn2C)c2ccnc(-c3ccn[nH]3)c2n1 (stereo not drawn) + Nc1ccc(C#CCN(C(=O)Cc2ncc(C(F)(F)F)cc2C(F)(F)F)c2ccc(F)cc2)nn1
22.4

# viability, T/C lookup, item CC1COCCN1c1cc(C2(O)CC3CCC(C2)O3)c2cnn(-c3ccn[nH]3)c2n1 (stereo not drawn) + Cc1cccc(N(C)C(=O)C2C(O)CCN2c2nc(C)cc(C(F)(F)F)c2C#N)c1
53.5

# viability, T/C lookup, item CCCS(=O)(=O)Nc1ccc(F)c(C(=O)c2c[nH]c3ncc(-c4ccc(Cl)cc4)cc23)c1F + Nc1ccc(C#CCN(C(=O)Cc2ncc(C(F)(F)F)cc2C(F)(F)F)c2ccc(F)cc2)nn1
102

###

# Test system: 616215-338-R-J1-PDC complex spheroid viability
# protocol: Anticancer human tumor 616215-338-R-J1-PDC cell line growth inhibition [POLQ];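 further: spheroids exposed to compounds for one week before readout; percent viability relative to DMSO vehicle wells taken as 100%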
# condition: second compound 1 µM; first compound 3.16 µM; stronger effect = lower value
quantity kind: viability, T/C

# viability, T/C lookup, item Nc1ccn(C2OC(CO)C(O)C2(F)F)c(=O)n1 (stereo unspecified) + Cc1cccc(N(C)C(=O)C2C(O)CCN2c2nc(C)cc(C(F)(F)F)c2C#N)c1
26.7%

# viability, T/C lookup, item CCc1cc2c(N3CCc4c(cc(Cn5ccnc5)cc4-c4cn(C)nc4C(F)(F)F)C3=O)cc(C)nc2c(OC)n1 + Cc1cccc(N(C)C(=O)C2C(O)CCN2c2nc(C)cc(C(F)(F)F)c2C#N)c1
48%

# viability, T/C lookup, item C=CC(=O)N1CCN(c2nc(=O)n(-c3c(C)ccnc3C(C)C)c3nc(-c4c(O)cccc4F)c(F)cc23)C(C)C1 (stereo unspecified) + COC1C(OC(N)=O)C(O)C(Oc2ccc3c(O)c(NC(=O)c4ccc(O)c(CC=C(C)C)c4)c(=O)oc3c2C)OC1(C)C
105%

# viability, T/C lookup, item CC1COCCN1c1cc(C2(O)CC3CCC(C2)O3)c2cnn(-c3ccn[nH]3)c2n1 (stereo unspecified) + Nc1ccc(C#CCN(C(=O)Cc2ncc(C(F)(F)F)cc2C(F)(F)F)c2ccc(F)cc2)nn1
28.6%

# viability, T/C lookup, item C=CC(=O)N1CCN(c2nc(=O)n(-c3c(C)ccnc3C(C)C)c3nc(-c4c(O)cccc4F)c(F)cc23)C(C)C1 (stereo unspecified) + Nc1ccc(C#CCN(C(=O)Cc2ncc(C(F)(F)F)cc2C(F)(F)F)c2ccc(F)cc2)nn1
84.4%

# viability, T/C lookup, item COc1cc(C2c3cc4c(cc3C(OC3OC5COC(C)OC5C(O)C3O)C3COC(=O)C23)OCO4)cc(OC)c1O (stereo unspecified) + Cc1cccc(N(C)C(=O)C2C(O)CCN2c2nc(C)cc(C(F)(F)F)c2C#N)c1
76.7%

###

# Test system: 616215-338-R-J1-PDC complex spheroid viability
# protocol: Anticancer human tumor 616215-338-R-J1-PDC cell line growth inhibition [POLQ];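 further: spheroids exposed to compounds for one week before readout; percent viability relative to DMSO vehicle wells taken as 100%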
# condition: second compound 0.1 µM; first compound 0.316 µM; stronger effect = lower value
Field: label. Allowed values: fulfilled (viability, T/C < 90%) or not fulfilled (viability, T/C >= 90%).

Determine whether this molecule shows viability, T/C lower than 90% (ties excluded): COc1cc2cc(C(=O)CCC(=O)O)sc2cc1OC + Cc1cccc(N(C)C(=O)C2C(O)CCN2c2nc(C)cc(C(F)(F)F)c2C#N)c1
not fulfilled

Determine whether this molecule shows viability, T/C lower than 90% (ties excluded): COc1cc(C2c3cc4c(cc3C(OC3OC5COC(C)OC5C(O)C3O)C3COC(=O)C23)OCO4)cc(OC)c1O (stereo unspecified) + Cc1cccc(N(C)C(=O)C2C(O)CCN2c2nc(C)cc(C(F)(F)F)c2C#N)c1
not fulfilled

Determine whether this molecule shows viability, T/C lower than 90% (ties excluded): CC(C)n1c(=O)n(C)c2cnc3cc(F)c(-c4ccc(OCCCN5CCCCC5)nc4)cc3c21 + Cc1cccc(N(C)C(=O)C2C(O)CCN2c2nc(C)cc(C(F)(F)F)c2C#N)c1
not fulfilled

Determine whether this molecule shows viability, T/C lower than 90% (ties excluded): CC1COCCN1c1cc(C2(O)CC3CCC(C2)O3)c2cnn(-c3ccn[nH]3)c2n1 (stereo unspecified) + Cc1cccc(N(C)C(=O)C2C(O)CCN2c2nc(C)cc(C(F)(F)F)c2C#N)c1
fulfilled

Determine whether this molecule shows viability, T/C lower than 90% (ties excluded): COc1cccc(OCCCN)c1-c1cc(Nc2cnc(C#N)cn2)n[nH]1 + Cc1cccc(N(C)C(=O)C2C(O)CCN2c2nc(C)cc(C(F)(F)F)c2C#N)c1
fulfilled

Determine whether this molecule shows viability, T/C lower than 90% (ties excluded): CCCS(=O)(=O)Nc1ccc(F)c(C(=O)c2c[nH]c3ncc(-c4ccc(Cl)cc4)cc23)c1F + Cc1cccc(N(C)C(=O)C2C(O)CCN2c2nc(C)cc(C(F)(F)F)c2C#N)c1
not fulfilled
